Values were extracted from patent US12338253B2.

- Study system: RET wt (Homo sapiens (Human), UniProt P07949)
- Sequence (P07949 29-1114): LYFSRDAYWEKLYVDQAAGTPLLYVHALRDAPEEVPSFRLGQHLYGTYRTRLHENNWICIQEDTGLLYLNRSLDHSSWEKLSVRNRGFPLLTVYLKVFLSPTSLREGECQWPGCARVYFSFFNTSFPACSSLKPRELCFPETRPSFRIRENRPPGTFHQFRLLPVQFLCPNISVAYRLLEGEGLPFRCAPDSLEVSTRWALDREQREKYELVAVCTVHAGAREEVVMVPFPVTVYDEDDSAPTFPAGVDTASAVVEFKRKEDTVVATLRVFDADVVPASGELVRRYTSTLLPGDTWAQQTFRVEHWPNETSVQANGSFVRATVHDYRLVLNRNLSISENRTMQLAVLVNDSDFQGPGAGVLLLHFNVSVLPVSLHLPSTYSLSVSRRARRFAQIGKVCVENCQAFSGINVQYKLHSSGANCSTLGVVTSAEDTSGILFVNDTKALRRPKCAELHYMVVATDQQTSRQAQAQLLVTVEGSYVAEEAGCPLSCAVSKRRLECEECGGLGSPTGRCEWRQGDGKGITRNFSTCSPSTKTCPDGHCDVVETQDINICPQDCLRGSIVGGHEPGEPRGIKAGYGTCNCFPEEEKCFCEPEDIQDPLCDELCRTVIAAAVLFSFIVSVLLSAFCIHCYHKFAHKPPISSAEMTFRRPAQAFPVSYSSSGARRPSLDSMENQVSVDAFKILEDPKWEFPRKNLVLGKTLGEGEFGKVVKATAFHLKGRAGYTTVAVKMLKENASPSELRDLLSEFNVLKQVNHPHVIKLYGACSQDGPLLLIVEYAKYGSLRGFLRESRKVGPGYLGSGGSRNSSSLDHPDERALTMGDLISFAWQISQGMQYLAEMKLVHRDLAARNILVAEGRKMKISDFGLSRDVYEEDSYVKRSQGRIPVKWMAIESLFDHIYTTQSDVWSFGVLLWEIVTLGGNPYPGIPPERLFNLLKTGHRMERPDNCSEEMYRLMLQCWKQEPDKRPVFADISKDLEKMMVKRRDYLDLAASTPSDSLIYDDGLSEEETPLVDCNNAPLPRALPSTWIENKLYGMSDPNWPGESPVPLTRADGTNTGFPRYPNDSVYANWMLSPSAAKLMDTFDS
Parameter measured: IC50 (nM)
One number for each entry, in nM.

Some solved entries appear below for comparison.
The recorded IC50 for entry "COc1ccc(CN2C3CC2CN(c2ccc(-c4cc(OCC(F)F)cn5nc6[nH]ncc6c45)cn2)C3)cn1" equals 0.1

The recorded IC50 for entry "COCCOc1cc(-c2ccc(N3CC4CC(C3)N4Cc3ccc(OC)nc3)nc2)c2c3cn[nH]c3nn2c1" equals 0.1

The recorded IC50 for entry "COc1ccc(CN2C3CC2CN(c2ccc(-c4cc(OCC(C)C)cn5nc6[nH]ncc6c45)cn2)C3)cn1" equals 0.4

Return reported IC50 values for all items listed beneath this line.
1. COc1ccc(CN2C3CC2CN(c2ccc(-c4cc(OCCCF)cn5nc6[nH]ncc6c45)cn2)C3)cn1
2. CCCOc1cc(-c2ccc(N3CC4CC(C3)N4Cc3ccc(OC)nc3)nc2)c2c3cn[nH]c3nn2c1

[0.1, 0.2]

Return reported IC50 values for all items listed beneath this line.
1. COCCOc1cc(-c2ccc(N3CC4CC(C3)N4Cc3ccc(OC)nc3)nc2)c2c3c(N)n[nH]c3nn2c1
2. COc1ccc(CN2C3CC2CN(c2ccc(-c4cc(OCCF)cn5nc6[nH]ncc6c45)cn2)C3)cn1
3. CCOc1cc(-c2ccc(N3CC4CC(C3)N4Cc3ccc(OC)nc3)nc2)c2c3cn[nH]c3nn2c1
4. COc1ccc(CN2C3CC2CN(c2ccc(-c4cc(OCCOC(F)F)cn5nc6[nH]ncc6c45)cn2)C3)cn1
5. COc1cc(-c2ccc(N3CC4CC(C3)N4Cc3ccc(OC)nc3)nc2)c2c3cn[nH]c3nn2c1

1. 4.1
2. 0.1
3. 0.2
4. 0.1
5. 0.2
